- SUBJECT OF TEST: T1, CCL4 (human, UniProt P13236 24-92)
- T1 chain: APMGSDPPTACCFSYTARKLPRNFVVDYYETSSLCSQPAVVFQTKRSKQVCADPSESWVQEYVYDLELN
- TEST: BLI
MEASUREMENT KIND: Kd

binder="P546_AMBCA (other) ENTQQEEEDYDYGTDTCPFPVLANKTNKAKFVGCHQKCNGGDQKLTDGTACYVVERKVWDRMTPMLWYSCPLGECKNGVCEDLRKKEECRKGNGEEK" measurement_kind=Kd experimental_value="26.6 nM"
binder="P1180_AMBTR (other) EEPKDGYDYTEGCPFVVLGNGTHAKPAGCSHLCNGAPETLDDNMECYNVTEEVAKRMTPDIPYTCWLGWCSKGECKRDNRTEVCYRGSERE" measurement_kind=Kd experimental_value="66 nM"
binder="P1182_AMBMA (other) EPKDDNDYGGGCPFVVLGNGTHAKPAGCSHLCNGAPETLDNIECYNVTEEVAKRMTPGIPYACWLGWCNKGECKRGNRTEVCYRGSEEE" measurement_kind=Kd experimental_value="92.4 nM"
binder="P1183_AMBTR (other) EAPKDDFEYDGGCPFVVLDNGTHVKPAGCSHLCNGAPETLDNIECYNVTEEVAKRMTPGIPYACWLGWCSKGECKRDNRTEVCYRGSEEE" measurement_kind=Kd experimental_value="78.3 nM"
